system.tested: Ubiquitin carboxyl-terminal hydrolase 2 (Homo sapiens) (UniProt O75604)
Sequence (O75604 whole entry, looked up): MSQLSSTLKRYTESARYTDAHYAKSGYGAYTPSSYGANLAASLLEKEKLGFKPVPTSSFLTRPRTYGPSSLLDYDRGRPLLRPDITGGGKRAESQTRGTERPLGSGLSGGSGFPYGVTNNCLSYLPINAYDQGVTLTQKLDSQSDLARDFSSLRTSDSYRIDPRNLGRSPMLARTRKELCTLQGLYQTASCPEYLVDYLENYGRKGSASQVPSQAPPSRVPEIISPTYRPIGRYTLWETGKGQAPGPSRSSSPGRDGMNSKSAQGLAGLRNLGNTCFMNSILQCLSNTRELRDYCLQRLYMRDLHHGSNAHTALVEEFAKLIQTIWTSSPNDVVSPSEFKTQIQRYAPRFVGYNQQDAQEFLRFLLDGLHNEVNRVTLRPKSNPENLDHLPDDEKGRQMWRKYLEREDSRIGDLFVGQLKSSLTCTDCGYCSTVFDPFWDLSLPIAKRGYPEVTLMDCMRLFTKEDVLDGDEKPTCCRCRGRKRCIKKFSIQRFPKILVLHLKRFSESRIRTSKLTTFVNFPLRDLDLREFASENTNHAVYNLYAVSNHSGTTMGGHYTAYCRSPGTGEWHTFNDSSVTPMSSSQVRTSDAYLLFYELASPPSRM
test.name: Confirmation Assay for Inhibitors of Ubiquitin-specific Protease USP2a Using CHOP2 as the Reporter; note: nearly all actives have a fitted effect of over 55% in size; note: potency is the fitted concentration of half-maximal effect
condition.info: USP2 core, Ub-CHOP2 coupled reporter fluorescence; series mostly up to 38.3 µM
Description: NIH Molecular Libraries Probe Centers Network [MLPCN] NIH Chemical Genomics Center [NCGC] MLSCN Grant: XO1-MH079852-01 PI Name: Nicholson, Ben. […] Thus, this coupled assay gives a fluorescent read-out at excitation/emission wavelengths of 485/531. […] NCGC Assay Protocol Summary: The assay buffer, prepared fresh at the day of the assay, contains 20mM Tris-HCl pH 8.0, 2mM CaCl2, 2mM beta-Mercaptoethanol, 0.05% CHAPS. […] The time zero reading was used to flag fluorescence artifacts. […]
Results filed as inconclusive are left out. Calls of active or inactive are those of the source. Calls come from the whole dose curve; as a rule, active = well fitted inhibition curve with a large enough effect; inconclusive = small, poorly fitted or top-dose-only effect, or effect the other way; inactive = flat fitted curve, though single readings scatter.

| compound.string | Potency |
| --- | --- |
| C=CC#CC[N+]1(CC#Cc2ccccc2)CCOCC1 | 3.69 µM (active) |
| CCOc1cccc(NC(=O)/C(C#N)=C\c2cn(CC(=O)O)c3ccccc23)c1 | inactive |
| Cc1ccc(S(=O)(=O)Nc2cc(C)c(O)c(S(=O)(=O)c3ccc(C)cc3)c2)cc1 | inactive |
| CCOc1ccc2[nH]c(=O)c(CN(Cc3cccs3)Cc3nnnn3C(C)(C)CC)cc2c1 | inactive |

----------
system.tested: Ubiquitin carboxyl-terminal hydrolase 2 (Homo sapiens)
test.name: Confirmation Assay for Inhibitors of Ubiquitin-specific Protease USP2a Using CHOP2 as the Reporter; note: nearly all actives have a fitted effect of over 55% in size; note: potency is the fitted concentration of half-maximal effect
condition.info: USP2 core, Ub-CHOP2 coupled reporter fluorescence; series mostly up to 38.3 µM
Inconclusive results are not listed. Calls of active or inactive are those of the source. The call rests on the fitted dose curve; in most records, active means well fitted inhibition curve with a large enough effect; inconclusive means small, poorly fitted or top-dose-only effect, or effect the other way; inactive means flat fitted curve, though single readings scatter.
experimental.readout: Potency

| molecule | val |
| --- | --- |
| COc1ccc(CN(Cc2cc3cc(C)ccc3[nH]c2=O)C(=O)N(C)C)cc1 | inactive |
| O=C(CCn1c(=O)c2ccccc2n(Cc2ccccc2)c1=O)NCc1ccc2c(c1)OCO2 | inactive |
| N=C1C(c2nc3ccccc3c(=O)[nH]2)=C(O)CN1CCc1ccccc1 | inactive |
| CCOC(=O)C1CCCN(C(=O)c2cc(-c3ccco3)nc3ccccc23)C1 (stereo unspecified) | 18.5 µM (active) |
| O=C(Nc1ccccc1)c1cc(Cl)nc2ccccc12 | inactive |
| COc1ccc(NC(=O)c2cc(-c3ccco3)nc3ccccc23)cc1S(=O)(=O)N1CCOCC1 | 18.5 µM (active) |
| COc1ccc(-c2nc(C#N)c(NCC3CCCO3)o2)cc1OC (stereo unspecified) | inactive |
| COc1ccc(S(=O)(=O)N(C)CC(=O)Nc2cccc(C(C)=O)c2)cc1Cl | inactive |
| C=CCNCCOCCOc1ccccc1-c1ccccc1 | inactive |
| Cc1ccc(C(C)C)c(OCc2nn(CC(=O)c3ccc(OC(F)F)cc3)c3[n+]2CCCCC3)c1 | inactive |
| Cn1c(C(=O)N2CCN(Cc3ccc4c(c3)OCO4)CC2)cc2sccc21 | inactive |

Data credit: PubChem BioAssay AID493168
